Documented log10 IC50 across a set of molecules
Target: C-domain of MALT1 (amino acids 329-824) (Homo sapiens (Human))
Sequence (Q9UDY8 329-824): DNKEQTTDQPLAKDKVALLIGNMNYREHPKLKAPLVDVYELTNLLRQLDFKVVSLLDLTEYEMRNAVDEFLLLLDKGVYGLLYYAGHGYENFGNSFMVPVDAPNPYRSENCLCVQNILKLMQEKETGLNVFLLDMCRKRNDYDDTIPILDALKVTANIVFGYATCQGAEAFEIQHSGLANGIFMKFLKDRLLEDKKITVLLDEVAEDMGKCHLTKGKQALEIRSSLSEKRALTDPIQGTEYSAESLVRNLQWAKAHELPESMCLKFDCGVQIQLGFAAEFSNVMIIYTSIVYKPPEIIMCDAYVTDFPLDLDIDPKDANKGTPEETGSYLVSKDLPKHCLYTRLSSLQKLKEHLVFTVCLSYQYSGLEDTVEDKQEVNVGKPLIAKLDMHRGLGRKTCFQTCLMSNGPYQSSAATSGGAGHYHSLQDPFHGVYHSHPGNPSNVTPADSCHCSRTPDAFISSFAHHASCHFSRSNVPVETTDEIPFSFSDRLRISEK
Kindly note that the scale is log10 and the underlying IC50 is in nM.

CO[C@@H](C)c1c(NC(=O)Nc2cnc(OC(F)F)c(Cl)c2)cnc2cc(Cl)nn12 [Example 93]    0.00
CC(C)c1c(NC(=O)Nc2cc(Cl)c(-n3nccn3)nc2OC2CCN(C)C2)cnc2cc(Cl)nn12 (centres unmarked) [Example 33]    1.48
COCC(OC)c1c(NC(=O)Nc2cnc(-n3nccn3)c(Cl)c2)cnc2cc(Cl)nn12 (centres unmarked) [Example 56]    0.70
COC[C@@H](C)c1c(NC(=O)Nc2cnc(-n3nccn3)c(C(F)(F)F)c2)cnc2cc(Cl)nn12 [Example 110]    0.95
Cc1ncn(-c2ccc(NC(=O)Nc3cnc4cc(Cl)nn4c3C(C)C)cc2C#N)n1 [Example 19]    0.48

Request: Quick one: log10 IC50 of CO[C@@H](c1c(NC(=O)Nc2ccnc(C(F)(F)F)c2)cnc2cc(Cl)nn12)C(C)C [Example 37] ?
Result: 1.04

Request: Next: CO[C@@H](C)c1c(NC(=O)Nc2cc(Cl)cnc2OCCN(C)C)cnc2cc(Cl)nn12 [Example 99]
Result: 1.32

Request: Now try CO[C@@H](c1c(NC(=O)Nc2cnc(-n3nccn3)c(Cl)c2)cnc2cc(Cl)nn12)C(C)C [Example 5] .
Result: 0.70

* * *

pIC50 values for the compounds below.
Target: cIAP2-MALT1 fusion protein (Homo sapiens)
Sequence (Q9UDY8 2-824 limits assumed): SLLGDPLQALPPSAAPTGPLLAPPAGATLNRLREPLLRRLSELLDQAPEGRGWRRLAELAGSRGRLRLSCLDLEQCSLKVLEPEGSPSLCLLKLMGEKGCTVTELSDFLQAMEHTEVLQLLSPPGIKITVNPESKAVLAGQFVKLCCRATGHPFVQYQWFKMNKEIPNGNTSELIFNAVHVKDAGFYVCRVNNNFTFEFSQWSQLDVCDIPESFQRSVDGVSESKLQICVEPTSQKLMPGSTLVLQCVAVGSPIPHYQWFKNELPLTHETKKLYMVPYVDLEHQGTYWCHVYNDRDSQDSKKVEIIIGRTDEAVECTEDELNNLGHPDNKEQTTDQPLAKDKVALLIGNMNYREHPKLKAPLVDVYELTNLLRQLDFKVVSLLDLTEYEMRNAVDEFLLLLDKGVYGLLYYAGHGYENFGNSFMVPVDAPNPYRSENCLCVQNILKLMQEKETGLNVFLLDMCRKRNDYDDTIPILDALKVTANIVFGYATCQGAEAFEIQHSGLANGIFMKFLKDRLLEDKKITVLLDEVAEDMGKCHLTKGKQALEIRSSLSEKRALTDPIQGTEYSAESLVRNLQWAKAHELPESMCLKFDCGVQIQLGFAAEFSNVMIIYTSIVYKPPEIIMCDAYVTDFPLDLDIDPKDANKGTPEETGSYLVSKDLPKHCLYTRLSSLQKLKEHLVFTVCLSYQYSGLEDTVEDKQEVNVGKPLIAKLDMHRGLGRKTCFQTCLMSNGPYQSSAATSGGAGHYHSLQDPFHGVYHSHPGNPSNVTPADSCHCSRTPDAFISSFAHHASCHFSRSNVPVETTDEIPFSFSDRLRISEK
Assay: cell-based
A value of pIC50 is the negative decimal logarithm of a concentration given in moles per litre.

COc1ncc(NC(=O)Nc2cnc3cc(Cl)nn3c2C2C3COCC32)cc1Cl (stereo not shown)    6.26
CN(C)C(=O)c1c(NC(=O)Nc2cnc(-n3nccn3)c(Cl)c2)cnc2cc(Cl)nn12    6.05
CN(C)C1(c2c(NC(=O)Nc3cnc(-n4nccn4)c(Cl)c3)cnc3cc(Cl)nn23)CC1    6.99
CC(C)(C)c1c(NC(=O)Nc2cnc(-n3nccn3)c(Cl)c2)cnc2cc(Cl)nn12    6.97
COCC1(c2c(NC(=O)Nc3ccnc(C(F)(F)F)c3)cnc3cc(Cl)nn23)CC1    6.62

Request: Give the reported pIC50 for CC1(c2c(NC(=O)Nc3ccnc(C(F)(F)F)c3)cnc3cc(Cl)nn23)CCCO1 (stereo not shown) (system: cIAP2-MALT1 fusion protein (Homo sapiens)).
Result: 6.74

Request: Could you do the same for "CO[C@H](c1c(NC(=O)Nc2cnc(-n3nccn3)c(Cl)c2)cnc2cc(Cl)nn12)C(C)C" , please?
Result: 7.52

Request: Here is the next compound: "CO[C@@H](c1c(NC(=O)Nc2cnc(-n3nccn3)c(Cl)c2)cnc2cc(Cl)nn12)C(C)C"
Result: 6.95

Request: What would you report for "Cc1ncn(-c2ccc(NC(=O)Nc3cnc4cc(Cl)nn4c3C(C)C)cc2C#N)n1" ?
Result: 7.04

Request: Please give the result for "COc1ncc(NC(=O)Nc2cnc3cc(Cl)nn3c2C(C)C)cc1Cl" too.
Result: 6.83

Request: Ok, now "C[C@H](OCCN(C)C)c1c(NC(=O)Nc2cnc(-n3nccn3)c(Cl)c2)cnc2cc(Cl)nn12"
Result: 6.51

Request: Now the compound "CO[C@@H](c1c(NC(=O)Nc2cnc(-n3nccn3)c(C(F)(F)F)c2)cnc2cc(Cl)nn12)C(C)C"
Result: 7.21

Request: Now this one: "CC(C)OCc1c(NC(=O)Nc2cnc(-n3nccn3)c(Cl)c2)cnc2cc(Cl)nn12"
Result: 6.43

Request: Note, next up: COCC(OC)c1c(NC(=O)Nc2cnc(-n3nccn3)c(Cl)c2)cnc2cc(Cl)nn12 (stereo not shown)
Result: 6.88

Request: Now consider "COC(C)(C)c1c(NC(=O)Nc2ccnc(C(F)(F)F)c2)cnc2cc(Cl)nn12" .
Result: 6.96

Request: One more compound: "O=C(Nc1cnc(-n2nccn2)c(Cl)c1)Nc1cnc2cc(Cl)nn2c1CC1CCOCC1"
Result: 6.30

The measurements presented in this section are drawn from patent US9815842B2.
